- System: HEK293T (UBE3A T485A transfected, BAR Wnt reporter)
- PROTOCOL_SUMMARY: Renilla luciferase signal (cell health) relative to plate median (fold (linear ratio)); higher = higher Renilla signal
- CONDITION_SUMMARY: concentration: 100 uM; 24 h
Over roughly 1,100 compounds, “Renilla luciferase signal (cell health) relative to plate median” has its median near 0.97; the highest 2% begin near 1.6. The list comes from a sample in which the highest values are over-represented; it also holds close analogues and randomly drawn compounds.

| COMPOUND | Renilla luciferase signal |
| --- | --- |
| O=C1OC(=O)C2C3C=CC(C3)C12 (stereo not given) [2-Norbornene-5,6-dicarboxylic anhydride] | 1.39 |
| NC(CCCP(=O)(O)O)C(=O)O (racemic) | 2.45 |
| OC12N=C(c3ccccc3)SC1Cc1cc(Cl)ccc12 (stereo not given) | 0.714 |
| c1ccc(Nc2ccccc2)cc1 [Diphenylamine] | 1.82 |
| O=C(O)c1cc(/N=N/c2ccc(S(=O)(=O)Nc3ccccn3)cc2)ccc1O [Sulfasalazine] | 0.277 |
| Cc1ncc(CO)c(CO)c1O [Pyridoxine] | 1.14 |
| O=C([O-])c1ccc2c(c1)nc(C(=O)NC1CCN(C3CC3)CC1)n2Cc1cc(-c2ccc(Cl)s2)on1.[Na+] | 0.531 |
| Nc1ccc(Nc2ccccc2)cc1 [N-Phenyl-1,4-benzenediamine] | 0.204 |
| Cc1ccc(C(C)C)cc1 [p-Cymene] | 1.51 |
| CCNc1ccccc1 [N-Ethylaniline] | 1.17 |

====

- Test system: HEK293T (UBE3A T485A transfected, BAR Wnt reporter)
- PROTOCOL_SUMMARY: Renilla luciferase signal (cell health) relative to plate median (fold (linear ratio)); higher = higher Renilla signal
- CONDITION_SUMMARY: concentration: 0.1 uM; 24 h
Whole data set: some 1,100 compounds, median “Renilla luciferase signal (cell health) relative to plate median” near 0.97, cut for the highest 2% near 1.6. The list comes from a sample in which the highest values are over-represented; it also holds close analogues and randomly drawn compounds.
Measured Renilla luciferase signal of individual entries

| COMPOUND | TARGET_UNDER_TEST | Renilla luciferase signal |
| --- | --- | --- |
| COC(=O)CSc1cc(/N=c2\sc(=O)n3n2CCCC3)c(F)cc1Cl | HEK293T (UBE3A T485A transfected, BAR Wnt reporter) | 0.995 |
| Cc1ccc(C(C)C)cc1 | HEK293T (UBE3A T485A transfected, BAR Wnt reporter) | 1.03 |
| O=C1OC(c2ccc(O)cc2)(c2ccc(O)cc2)c2ccccc21 | HEK293T (UBE3A T485A transfected, BAR Wnt reporter) | 1.1 |
| COCCOCCOC | HEK293T (UBE3A T485A transfected, BAR Wnt reporter) | 1.08 |
| CC(C(C)N1CC(=O)NC(=O)C1)N1CC(=O)NC(=O)C1 (centres undefined) | HEK293T (UBE3A T485A transfected, BAR Wnt reporter) | 0.674 |
| C=CCCCCCCCCCCCC | HEK293T (UBE3A T485A transfected, BAR Wnt reporter) | 1.14 |
| CSC(=O)c1cccc2nnsc12 | HEK293T (UBE3A T485A transfected, BAR Wnt reporter) | 1.18 |
| CC(=O)CC(c1ccccc1)c1c(O)c2ccccc2oc1=O (centres undefined) | HEK293T (UBE3A T485A transfected, BAR Wnt reporter) | 1.16 |
| CCCCCCCC/C=C\CCCCCCCC(=O)OC[C@@H](O)[C@H]1OC[C@H](O)[C@H]1O [Sorbitan, mono-(9Z)-9-octadecenoate] | HEK293T (UBE3A T485A transfected, BAR Wnt reporter) | 1 |

====

- Tested on: HEK293T (UBE3A T485A transfected, BAR Wnt reporter)
- PROTOCOL_SUMMARY: Renilla luciferase signal (cell health) relative to plate median (fold (linear ratio)); higher = higher Renilla signal
- CONDITION_SUMMARY: concentration: 0.1 uM; 24 h
Whole data set: some 1,100 compounds, median “Renilla luciferase signal (cell health) relative to plate median” near 0.97, cut for the highest 2% near 1.6. The sample as a whole holds a higher share of the highest values than the screen did.
Quick rule for you: Renilla luciferase signal at 1 or higher means MET, lower means NOT MET.

| COMPOUND | GROUP |
| --- | --- |
| CCOCCOCCOCCO [2-[2-(2-Ethoxyethoxy)ethoxy]ethanol] | NOT MET |
| CCCCOC(=O)c1ccccc1 [Butyl benzoate] | NOT MET |
| O=c1ccc2ccccc2o1 | MET |
| O=C1CCC(N2C(=O)c3ccccc3C2=O)C(=O)N1 (centres undefined) [Thalidomide] | NOT MET |
| CC(=O)c1ccccc1 | NOT MET |
| CCOC(=O)C(C)(C)Oc1ccc(Cl)cc1 [Clofibrate] | NOT MET |
| Cn1c(=O)c2[nH]cnc2n(C)c1=O | NOT MET |
| C[C@]12C[C@H](O)[C@H]3[C@@H](CCC4=CC(=O)CC[C@@]43C)[C@@H]1CC[C@@H]2C(=O)CO | NOT MET |
| C#CCOC(=O)[C@@H](C)Oc1ccc(Oc2ncc(Cl)cc2F)cc1 | MET |
| Cn1cnc2c1c(=O)[nH]c(=O)n2C | NOT MET |
| CCOCCO | MET |
| O=C(O)c1cccc(C(=O)O)c1 | MET |
| Cn1c(=O)c2c(ncn2C)n(C)c1=O | NOT MET |
| OC[C@H]1O[C@@H]2O[C@H]3[C@H](O)[C@@H](O)[C@@H](O[C@H]4[C@H](O)[C@@H](O)[C@@H](O[C@H]5[C@H](O)[C@@H](O)[C@@H](O[C@H]6[C@H](O)[C@@H](O)[C@@H](O[C@H]7[C@H](O)[C@@H](O)[C@@H](O[C@H]1[C@H](O)[C@H]2O)O[C@@H]7CO)O[C@@H]6CO)O[C@@H]5CO)O[C@@H]4CO)O[C@@H]3CO | MET |
| O=C(CCCCCCCCc1cccnc1)N1CCC(C=C(c2ccccc2)c2ccccc2)CC1 | NOT MET |
| Cc1cc(NC(=O)C(=O)O)cc(C)c1Oc1ccc(O)c2c1CCC2 | MET |
| CC[C@H]1CC[C@H](NCc2cc3c(cc2OC)[C@H]2C[C@H]2C(=O)N3C)[C@H](c2ccccc2)N1 | NOT MET |
| Cn1cc[nH]c1=S | NOT MET |

====

- Test system: HEK293T (UBE3A T485A transfected, BAR Wnt reporter)
- PROTOCOL_SUMMARY: Renilla luciferase signal (cell health) relative to plate median (fold (linear ratio)); higher = higher Renilla signal
- CONDITION_SUMMARY: concentration: 100 uM; 24 h
Over roughly 1,100 compounds, “Renilla luciferase signal (cell health) relative to plate median” has its median near 0.97; the highest 2% begin near 1.6. Only a selection was taken, and the highest values are over-represented in it overall.
Quick rule for you: Renilla luciferase signal at 0.7 or higher means label 1, lower means label 0.

| CPD_SMILES | TARGET_UNDER_TEST | GROUP |
| --- | --- | --- |
| O=C(O)Cc1cc(I)c(Oc2cc(I)c(O)c(I)c2)c(I)c1 | HEK293T (UBE3A T485A transfected, BAR Wnt reporter) | label 1 |
| Cc1ccc(N)cc1O | HEK293T (UBE3A T485A transfected, BAR Wnt reporter) | label 1 |
| N[C@@H](Cc1cc(I)c(Oc2ccc(O)c(I)c2)c(I)c1)C(=O)O | HEK293T (UBE3A T485A transfected, BAR Wnt reporter) | label 1 |
| O=[N+]([O-])c1ccc(O)cc1 | HEK293T (UBE3A T485A transfected, BAR Wnt reporter) | label 1 |
| O=C(O)Cc1cc(I)c(Oc2ccc(O)c(I)c2)c(I)c1 | HEK293T (UBE3A T485A transfected, BAR Wnt reporter) | label 0 |

====

- Test system: HEK293T (UBE3A T485A transfected, BAR Wnt reporter)
- PROTOCOL_SUMMARY: Renilla luciferase signal (cell health) relative to plate median (fold (linear ratio)); higher = higher Renilla signal
- CONDITION_SUMMARY: concentration: 1 uM; 24 h
The full ranking holds about 1,100 compounds; the median of “Renilla luciferase signal (cell health) relative to plate median” is about 0.97, and the highest 2% start at about 1.6. This excerpt belongs to a sample that is enriched for the highest values.
Quick rule for you: Renilla luciferase signal at 0.9 or higher means T, lower means F.

| MOLECULE | TARGET_UNDER_TEST | GROUP |
| --- | --- | --- |
| COC(=O)CSc1cc(/N=c2\sc(=O)n3n2CCCC3)c(F)cc1Cl [Fluthiacet-methyl] | HEK293T (UBE3A T485A transfected, BAR Wnt reporter) | T |
| CC(C(C)N1CC(=O)NC(=O)C1)N1CC(=O)NC(=O)C1 (stereo unspecified) | HEK293T (UBE3A T485A transfected, BAR Wnt reporter) | F |
| CCN(Cc1c(F)cccc1Cl)c1c([N+](=O)[O-])cc(C(F)(F)F)cc1[N+](=O)[O-] [Flumetralin] | HEK293T (UBE3A T485A transfected, BAR Wnt reporter) | F |
| O=C([O-])c1ccc2c(c1)nc(C(=O)NC1CCN(C3CC3)CC1)n2Cc1cc(-c2ccc(Cl)s2)on1.[Na+] | HEK293T (UBE3A T485A transfected, BAR Wnt reporter) | F |
| Cc1ncc([C@@H](CCCCCCc2ccc3c(n2)NCCC3)CC(=O)O)cn1 | HEK293T (UBE3A T485A transfected, BAR Wnt reporter) | F |
| OC[C@H]1O[C@@H]2O[C@H]3[C@H](O)[C@@H](O)[C@@H](O[C@H]4[C@H](O)[C@@H](O)[C@@H](O[C@H]5[C@H](O)[C@@H](O)[C@@H](O[C@H]6[C@H](O)[C@@H](O)[C@@H](O[C@H]7[C@H](O)[C@@H](O)[C@@H](O[C@H]1[C@H](O)[C@H]2O)O[C@@H]7CO)O[C@@H]6CO)O[C@@H]5CO)O[C@@H]4CO)O[C@@H]3CO [alpha-Cyclodextrin] | HEK293T (UBE3A T485A transfected, BAR Wnt reporter) | T |
| Cc1cc(SC2=C(O)C[C@@](CCc3ccc(N)cc3)(C(C)C)OC2=O)c(C(C)(C)C)cc1CO | HEK293T (UBE3A T485A transfected, BAR Wnt reporter) | T |
| O=C(O)c1ccc([N+](=O)[O-])cc1 [4-Nitrobenzoic acid] | HEK293T (UBE3A T485A transfected, BAR Wnt reporter) | T |
| O=c1c(-c2ccc(O)cc2)coc2cc(O)cc(O)c12 [Genistein] | HEK293T (UBE3A T485A transfected, BAR Wnt reporter) | F |
| CCc1ccc(O)c(C(C)(C)C)c1 [2-tert-Butyl-4-ethylphenol] | HEK293T (UBE3A T485A transfected, BAR Wnt reporter) | T |
| [Cl-].[K+] | HEK293T (UBE3A T485A transfected, BAR Wnt reporter) | T |
| CN(C)CCOC(c1ccccc1)c1ccccc1.Cl [Diphenhydramine hydrochloride] | HEK293T (UBE3A T485A transfected, BAR Wnt reporter) | F |
| [Cl-].[Li+] | HEK293T (UBE3A T485A transfected, BAR Wnt reporter) | T |
| Cc1cn([C@H]2C=C[C@@H](CO)O2)c(=O)[nH]c1=O [Stavudine] | HEK293T (UBE3A T485A transfected, BAR Wnt reporter) | T |
